Tested on: U2OS
Method: Effect on His-tagged human P23H rhodopsin expressed in U2OS cells assessed as increase localization of P23H rhodopsin using […] as substrate at 17 to 20 uM incubated for overnight and measured by immunofluorescence microscopy analysis
Assay type: functional, cell-based
Conditions Used: dose 17-20 µM, time 12.0 hrs
The source made the active and inactive calls. The rule behind the calls is not given here.

Given Smiles: CC1=C(CNc2ccc(C(=O)O)cc2)C(C)(C)CCC1
Activity: Active

Given Smiles: C=CC(=O)Nc1ccc(NC(=O)c2cc(C(F)(F)F)cc(C(F)(F)F)c2)cc1
Activity: Active

Given Smiles: C=CC(=O)Nc1ccc(NC(=O)c2c(C)cccc2C)cc1
Activity: Active

Given Smiles: Cc1cccc(C)c1N1CCN(C(=O)c2ccc(C#N)cc2)CC1
Activity: Active
